Where do the numbers come from? From PubChem BioAssay.

Molecular target: Pro-neuregulin-1, membrane-bound isoform (Homo sapiens)
Assay: NRG1 binders on small-molecule microarrays, primary screen, psychiatric disease protein project, biochemical, small-molecule microarray, fluorescence 635/667 (AID 1075);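 also: score combines 667 nm spot fluorescence with signal to noise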
Conditions: NRG1 binding, 635 nm fluorescence, higher = more signal
# composite z-score per entry

>  <compound>
CC(C)[C@@H](CO)NC(=O)[C@H]1[C@@H](c2ccccc2)N(c2ccccc2)O[C@@H]1C

>  <composite z-score>
-0.0453

$$$$
>  <compound>
C=C(COC)/C(=C/C[C@@H](OC(C)=O)c1ccc(CO)o1)c1cnc2ccccc2c1

>  <composite z-score>
1.02

$$$$
>  <compound>
C=CCOC(=O)[C@H]1[C@@H]2C(=O)O[C@@H](c3ccccc3)[C@@H](c3ccccc3)N2[C@@H](c2ccc(OCCOC(=O)[C@H]3C[C@H]4C(=O)N[C@@H](CC(C)C)C(=O)N4[C@H]3c3ccc(O)cc3)cc2)[C@]12C(=O)Nc1ccc(I)cc12

>  <composite z-score>
0.731

$$$$
>  <compound>
COc1ccc(CCNC(=O)[C@@]2(C)c3ccccc3C(=O)N(Cc3cc(F)cc(C(F)(F)F)c3)[C@H]2c2ccc(CO)cc2)cc1

>  <composite z-score>
0.499

$$$$
>  <compound>
CCN(CC)c1ccc(N2CC=CC34O[C@@H]5/C=C\CCCOC(=O)C5[C@H]3C(=O)N(CCO)[C@@H]4C2=O)cc1 (some centres not stated)

>  <composite z-score>
1.84

$$$$
>  <compound>
CN1C(=O)C2C=CC(C(O)c3cc(C(F)(F)F)cc(C(F)(F)F)c3)N(N3CCCCC3)C2C1=O (configuration not stated)

>  <composite z-score>
0.416

$$$$
>  <compound>
CN1C(=O)C2C=CC(C(O)C3CCCCC3)N(Nc3ccc([N+](=O)[O-])cc3[N+](=O)[O-])C2C1=O (configuration not stated)

>  <composite z-score>
1.59

$$$$

###

Test: small-molecule microarray binders of probe aWnt5a, primary screen, biochemical, biotinylated probe, 635/667 nm fluorescence (AID 1113);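 also: score merges 667 nm fluorescence intensity with signal-to-noise per printed feature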
Conditions: higher = more signal
We use -0.03 as the dividing line for composite z-score: on or above the line is Fulfilled, below is Not fulfilled.

>  <compound>
CC(C)N1C(=O)c2ccccc2[C@](C)(C(=O)NCc2ccccc2)[C@@H]1c1ccc(CO)cc1

>  <label-class>
Not fulfilled

$$$$
>  <compound>
CC(C)C(=C=CC[C@@H](O)c1ccccc1OCCO)CCO

>  <label-class>
Not fulfilled

$$$$
>  <compound>
[N-]=[N+]=NCc1ccccc1C[C@@]1(C(=O)NCC(O)CO)N=C(c2ccc(OCCCO)cc2)O[C@@H]1c1ccccc1N=[N+]=[N-] (some centres undefined)

>  <label-class>
Fulfilled

$$$$
>  <compound>
[N-]=[N+]=Nc1ccccc1C[C@]1(C(=O)NCC(O)CO)N=C(c2ccc(OCCCO)cc2)O[C@H]1c1ccccc1N=[N+]=[N-] (some centres undefined)

>  <label-class>
Fulfilled

$$$$
>  <compound>
C=CC[C@]12N=C(c3ccc(OCCCO)cc3)O[C@H]1c1ccccc1N(Cc1ccccc1)C2=O

>  <label-class>
Fulfilled

$$$$
>  <compound>
COC(=O)[C@@]1(Cc2ccc(OC)cc2)[C@H]2c3cc(C(=O)N4CCCC4)n(Cc4ccsc4Br)c3C[C@H]2CN1C(=O)c1ccccc1

>  <label-class>
Not fulfilled

$$$$
>  <compound>
CCCC[C@@H]1C[C@H]1[C@@H](NC(=O)c1ccco1)c1ccc(Cl)cc1

>  <label-class>
Fulfilled

$$$$
>  <compound>
CC(C)(C)OC(=O)CC[C@@]1(C(=O)NCC(O)CO)N=C(c2ccc(OCCCO)cc2)O[C@@H]1c1ccccc1N=[N+]=[N-] (some centres undefined)

>  <label-class>
Fulfilled

$$$$
>  <compound>
C=CCC(OC(C)=O)[C@@H]1[C@@H](N(Cc2ccc(-c3cccc(C(F)(F)F)c3)o2)C(=O)Cc2ccc(F)cc2)c2cc(OCCCO)ccc2N1C(=O)Cc1ccc(OC)cc1 (some centres undefined)

>  <label-class>
Not fulfilled

$$$$
>  <compound>
COCCOC(=O)N1C(=O)[C@@]2(c3cc(C#CCCO)ccc31)[C@H](C(=O)N1CCc3cc(OC)c(OC)cc3C1)[C@H]1C(=O)O[C@H](c3ccccc3)[C@H](c3ccccc3)N1[C@@H]2c1ccc(O)cc1

>  <label-class>
Not fulfilled

$$$$
>  <compound>
CCOC(=O)C[C@H]1[C@H](OC(=O)Cc2ccc3c(c2)OCO3)[C@@H](NC(=O)c2ccc(-c3ccccc3)cc2)c2cc(OCCCO)ccc2N1C(=O)c1ccc2ccccc2n1

>  <label-class>
Not fulfilled

$$$$
>  <compound>
CC1CC/C=C\[C@H]2OC34C=CCN(C(C)(C)C)C(=O)[C@H]3N(CCCCCCO)C(=O)[C@@H]4C2C(=O)O1 (some centres undefined)

>  <label-class>
Not fulfilled

$$$$
>  <compound>
COc1ccc(C(O)C2C=CC3C(=O)N(c4ccccc4)C(=O)C3N2Nc2ccc(C(C)C)cc2)cc1OCc1ccccc1 (centres undefined)

>  <label-class>
Fulfilled

$$$$
>  <compound>
O=C(NCc1ccc(F)cc1)[C@H]1C[C@H]2C(=O)N[C@@H](Cc3ccccc3)C(=O)N2[C@H]1c1ccc(O)cc1

>  <label-class>
Not fulfilled

$$$$
